Tested on: AMARE
Test: Greenhouse test, pre-emergence treatment
Type: in vivo, Amaranthus retroflexus
Details: Amaranthus retroflexus, read-out: herbicidal activity, 500 g/ha
Kindly state pest or weed control at 500 g/ha for each of the entries shown.

Problem: Which measured pest or weed control at 500 g/ha value corresponds to Nc1nc(Nc2c(F)ccc3c2OCO3)nc(N2CCCC2)n1 [Example 20] ?
Result: ≥ 85%

Problem: Which measured pest or weed control at 500 g/ha value corresponds to CC(C)(F)c1nc(N)nc(Nc2c(F)ccc3c2OCCO3)n1 [Example 43] ?
Result: ≥ 85%

Problem: Which measured pest or weed control at 500 g/ha value corresponds to CC(C)(F)c1nc(N)nc(Nc2c(F)ccc3c2CCC3)n1 [Example 41] ?
Result: ≥ 85%

Problem: Which measured pest or weed control at 500 g/ha value corresponds to CC(C)(F)c1nc(N)nc(Nc2c(Cl)ccc3c2OC=CO3)n1 [Example 44] ?
Result: ≥ 85%
